Each recorded value in this set is attributed to ChEMBL document CHEMBL1201862.

System: SW-620
Assay: NCI tumour cell line growth inhibition, 48 h
Active and inactive are the calls of the source. No stated cut-off is given here; in the data, active = GI50 up to about 1.1 µM and inactive = higher.
Please state which outcome applies, choosing from Yes = active, No = inactive

Ask: Would you mind telling me which call this test gave COc1cc(OC)c2c(c1)OC(c1ccccc1)CC2=O (stereo not given) ?
Reply: No

Ask: Now try "CC(C)=CCC[C@]1(C)C=Cc2c(O)c3c(c(CC=C(C)C)c2O1)O[C@]12C(=C[C@@H]4CC1C(C)(C)O[C@@]2(C/C=C(/C)C(=O)O)C4=O)C3=O" .
Reply: Yes

Ask: Now try "COc1ccc(/C=C/C(=O)c2c(-c3ccccc3)nn(C)c(=O)c2N2CCCCC2)cc1" .
Reply: No

Ask: Now try "Cc1ccc(-c2c(C#N)c(N)nc3c2CCS(=O)(=O)c2ccccc2-3)cc1" .
Reply: No

Ask: Now try COc1ccc(N2C(=O)c3c4c(c5c([nH]c6ncccc65)c3C2=O)CCC(C(C)(C)C)C4)cc1 (stereo not given) .
Reply: No

Ask: Now try "CC1(C)CC(=O)c2c(nc3ccc4ccccc4c3c2-c2ccc(NC(=O)CCCCC(=O)Nc3ccc(-c4c5c(nc6ccc7ccccc7c46)CC(C)(C)CC5=O)cc3)cc2)C1" .
Reply: No

Ask: Now try "CCCCCCCCCCCC(=O)OCCOCCOCCOCCOCCOC(=O)CCCCCCCCCCC" .
Reply: No

Ask: Now try "COc1ccc(-c2nnc(-c3c(C)n(C)n(-c4ccccc4)c3=O)o2)cc1" .
Reply: No

Ask: Now try "CCOC(=O)C(=O)Nc1ccccc1CC" .
Reply: No

Ask: Now try "Cc1ccc(/N=N/c2c(O)c(C(=O)Nc3ccccc3)cc3ccccc23)c([N+](=O)[O-])c1" .
Reply: No

Ask: Now try "COc1ccc(Nc2nc3ccccc3nc2-c2cccs2)cc1" .
Reply: No

Ask: Now try CN(O)C(=O)SCC(NC(=O)CCC(N)C(=O)O)C(=O)NCC(=O)O (stereo not given) .
Reply: No

Ask: Now try CN(C(=O)C1CC1)C1C2CN3CCC(O2)C13 (stereo not given) .
Reply: No

Ask: Now try "N=C(N)NC(=N)Nc1ccc(S(N)(=O)=O)cc1" .
Reply: No

Ask: Now try "Nc1ncc(Cc2nc3ccccc3s2)s1" .
Reply: No

Ask: Now try "O=C(c1ccco1)N(C(=S)OCCOc1ccccc1)c1ccccc1" .
Reply: No

Ask: Now try COc1ccc2c(c1)CC1c3c(cc4c(c3-2)OCO4)CCN1C (stereo not given) .
Reply: No

Ask: Now try "CC(C)=CCCc1c(C)ccc2c1C(=O)C(=O)C(C(C)C)=C2" .
Reply: No

Ask: Now try "O=C(/C=C/c1c(O)ccc2ccccc12)c1ccccc1" .
Reply: No

Ask: Now try "CCCCCCCCCC/C=C/C=O" .
Reply: No

Ask: Now try "O=C1C=C(Cl)C(=O)C(c2ccc(Cl)cc2)=C1" .
Reply: No

Ask: Now try "Cc1cc(C)nc(NC(=S)Nc2ccccc2Cl)c1" .
Reply: No

Ask: Now try "Cc1cc2nc3c(C#N)c4c(c(Cl)n3c2cc1C)CCC4" .
Reply: No

Ask: Now try "O=C(/C=C/c1c(O)nc2ccccc2c1O)CC(=O)C(=O)Nc1cccc(O)c1" .
Reply: No

Ask: Now try OC1CCN2Cc3ccccc3N=C12 (stereo not given) .
Reply: No

Ask: Now try "O=C1CSCc2sccc21" .
Reply: No

Ask: Now try "CCCC(=O)OC[n+]1ccc2c(C)c3[nH]c4ccccc4c3c(C)c2c1" .
Reply: Yes

Ask: Now try O=C(Nc1cc(C(F)(F)F)ccc1Cl)C(=O)C(C(=O)c1ccc2ccccc2c1)C1OC(=O)c2ccccc21 (stereo not given) .
Reply: No

Ask: Now try "Cc1cc(S(=O)(=O)Nc2nc(N)nc(N3CCOCC3)n2)c(SCC(=O)O)cc1Cl" .
Reply: No

Ask: Now try NCC(=O)NC(CO)C(=O)O (stereo not given) .
Reply: No

----------
System: HT-29
Assay: NCI tumour cell line growth inhibition, 48 h
The source made the active and inactive calls. No stated cut-off is given here; in the data, active = GI50 up to about 1.1 µM and inactive = higher.
Recorded endpoint: GI50

Ask: Lab note: need GI50 for "O=C1C(=CNc2ccc([N+](=O)[O-])cc2)C(=O)N(c2ccccc2)C(=O)N1c1ccccc1" on HT-29, anyone have it?
Reply: > 100 µM (inactive)

Ask: Now try CC/C(=C/OC)P1(=O)OC(C)(C)CN1C(C)(C)C (centres undefined) .
Reply: > 100 µM (inactive)

Ask: Now try COc1cc(COC(=O)NC(Cc2cccs2)C(=O)O)c([N+](=O)[O-])cc1OC (centres undefined) .
Reply: > 100 µM (inactive)

Ask: Now try O=C1C2=Cc3ccccc3OC2(O)Oc2ccccc21 (centres undefined) .
Reply: > 100 µM (inactive)

Ask: Now try COc1cccc(C2CC(C)=Nc3c(ccc4c3C(=O)c3ccccc3C4=O)N2)c1O (centres undefined) .
Reply: > 100 µM (inactive)

Ask: Now try O=C(COc1ccc(Cl)cc1)N1N=C(c2ccc([N+](=O)[O-])o2)CC1(O)c1ccccc1 (centres undefined) .
Reply: 4.81 µM (inactive)

Ask: Now try CC(C)[Si](OC12CCC(CC1O)CC2C(=O)O)(C(C)C)C(C)C (centres undefined) .
Reply: 11.7 µM (inactive)

Ask: Now try C[C@@]1(c2ccccc2)O[C@@H]2C[C@H]3[C@@H]4CCC5=CC(=O)C=C[C@]5(C)[C@@]4(F)[C@@H](O)C[C@]3(C)[C@]2(C(=O)CO)O1 [AMCINAFIDE] .
Reply: 17 µM (inactive)

Ask: Now try "CNS(=O)(=O)NNS(=O)(=O)c1ccc(Cl)cc1" .
Reply: > 100 µM (inactive)

----------
Tested on: SF-539
Experiment: NCI tumour cell line growth inhibition, 48 h
The source made the active and inactive calls. No stated cut-off is given here; in the data, active = GI50 up to about 1.1 µM and inactive = higher.
Recorded endpoint: GI50

Ask: Request the reported GI50 associated with "O=C(c1ccco1)N(C(=S)OCCOc1ccccc1)c1ccccc1"
Reply: 22.9 µM (inactive)

Ask: Now try COc1ccc(C2CC(c3ccc4ccccc4c3O)=NN2)cc1OC (stereo not given) .
Reply: 31.3 µM (inactive)

Ask: Now try "CC(C)OP(=O)(OC(C)C)c1ccc2c(c1)OCCOCCOCCOCCO2" .
Reply: > 100 µM (inactive)

Ask: Now try CC(C)NCC(O)c1ccc(O)c2ncccc12 (stereo not given) .
Reply: 43 µM (inactive)

Ask: Now try O=CC1C(Cl)=Nc2nc3ccccc3n2C1c1ccc([N+](=O)[O-])cc1 (stereo not given) .
Reply: 20.2 µM (inactive)

----------
I'd appreciate it if you could supply GI50 values for the items below.
Test system: XF498
Test: NCI tumour cell line growth inhibition, 48 h
Active and inactive are the calls of the source. Cut-off read from the data, not from the text of the source: active = GI50 up to about 1.1 µM and inactive = higher.

Ask: Request the reported GI50 associated with CCCCC/C=C1\CCC(CN(C)C)C1=O (centres undefined)
Reply: 14.9 µM (inactive)

Ask: Now try CC1=C2[C@@H](c3ccccc3)C3C=CC2(C=C3C(F)(F)F)N(C(=O)NC2CCCCC2)C1=O (some centres undefined) .
Reply: > 100 µM (inactive)

Ask: Now try C/C=C/C=N/N(C(=O)c1cc([N+](=O)[O-])cc([N+](=O)[O-])c1)C1=NN=C(c2ccccc2)C(c2ccccc2)N1 (centres undefined) .
Reply: 36 µM (inactive)

Ask: Now try COc1ccc2c(c1)CC1c3c(cc4c(c3-2)OCO4)CCN1C (centres undefined) .
Reply: 27.7 µM (inactive)

Ask: Now try O=C(O)CCC1CCc2cccc(OCC(=O)O)c2C1=O (centres undefined) .
Reply: > 100 µM (inactive)

Ask: Now try C/C(=N\NC(=N)N)C(CN(C)C)C(c1ccccc1)c1c(O)c2ccccc2oc1=O (centres undefined) .
Reply: > 100 µM (inactive)

Ask: Now try "OCc1ccccc1C1CSCSC1" .
Reply: > 100 µM (inactive)

Ask: Now try "CCOC(=O)C(=O)Nc1ccccc1CC" .
Reply: > 100 µM (inactive)

Ask: Now try "CC(=O)Oc1c(Br)ccc2cc(C(Br)Br)c(C(=O)c3ccccc3)nc12" .
Reply: 14.8 µM (inactive)

Ask: Now try "CN(/N=C/c1ccnc2ccccc12)c1ccc([N+](=O)[O-])cc1[N+](=O)[O-]" .
Reply: > 100 µM (inactive)

Ask: Now try "O=C(/C=C/c1ccccc1O)c1cccnc1" .
Reply: > 100 µM (inactive)

Ask: Now try COc1cc2oc(-c3ccc(O)cc3)cc(=O)c2c(O)c1C1OC(CO)C(O)C(O)C1O (centres undefined) .
Reply: > 100 µM (inactive)

Ask: Now try Nc1ccc(C(=O)NN2C(=O)C(Cl)C2c2ccccc2O)cc1 (centres undefined) .
Reply: 37.3 µM (inactive)

Ask: Now try CCc1cccc(CC)c1NC(=O)CC1SC(N)=NC1=O (centres undefined) .
Reply: > 100 µM (inactive)
